conditions: in acetic acid, 297.15 K
Measurement Name: solubility (mole fraction)
No unit in the answer, please; the number alone is enough.

Name the recorded solubility (mole fraction) for "CO[C@H]1/C=C/O[C@@]2(C)Oc3c(C)c(O)c4c(O)c(c(/C=N/N5CCN(C6CCCC6)CC5)c(O)c4c3C2=O)NC(=O)/C(C)=C\C=C\[C@H](C)[C@H](O)[C@@H](C)[C@@H](O)[C@@H](C)[C@H](OC(C)=O)[C@@H]1C" . 0.067

* * *

conditions: in acetic acid, 303.15 K
Measurement Name: solubility (mole fraction)

Returns the measured solubility (mole fraction) for the input molecule. Input: "CO[C@H]1/C=C/O[C@@]2(C)Oc3c(C)c(O)c4c(O)c(c(/C=N/N5CCN(C6CCCC6)CC5)c(O)c4c3C2=O)NC(=O)/C(C)=C\C=C\[C@H](C)[C@H](O)[C@@H](C)[C@@H](O)[C@@H](C)[C@H](OC(C)=O)[C@@H]1C" 0.0707
